Target: T1, Monomeric 8-histidine tagged human EGFRvIII extracellular domain (human, UniProt P00533 298-645)
T1 construct: Analyte in all SPR assays; not shown: 8-histidine tag
Assay: SPR, captured by anti-mouse Fc, 37 C
So basically: koff at 0.0007 s⁻¹ or higher? That is Condition met. Lower than 0.0007 s⁻¹? That is Condition not met.

Task item: Decide: koff of 12H6 (antibody, V domains shown, Hybridoma supernatant (AlivaMab mouse); captured/detected via mouse Fc) VH: QVTLKESGPVLVKPTETLTLTCTVSGFSLSNARMGVSWIRQPPGKALEWLAHIFSTDEKSIRRSLRSRLTLSKDTSKSQVVLTMTNMDPVDTATYYCARDSSNYEGYFDYWGQGTLVTVSS VL: EVVMTQSPATLSVSPGERATLSCRASQGVSSNFAWYQQRPGQSPRLLLYGASTRATGVPGRFSGSGSGTENILTISSLQSEDFAIYFCQQYKDWPFTFGPGSKVDIK >= 0.0007 s⁻¹?
Reply: Condition met

Task item: Decide: koff of 34E7 (antibody, V domains shown, Hybridoma supernatant (AlivaMab mouse); captured/detected via mouse Fc) VH: EVNLVESGGGLVKPGGSLRLSCEASGFTFSYAWMSWVRQAPGKGLEWVGRIKSINDGGATDYASPVRNRFTISRDDSRNMLYLEMHSLKTEDTAVYYCTTIPGNDAFDMWGQGTLVTVSS VL: DIVLTQSPLSLSVTPGEPASISCRSTQSLLYSNGKNYLDWFLHKPGQSPQLLIFLGSIRASGVPDRFSGSGSGIDFILKISRVEAEDVGVYYCMQAQQTPITFGQGTRLEIK >= 0.0007 s⁻¹?
Reply: Condition met

Task item: Decide: koff of 42G9 (antibody, V domains shown, Hybridoma supernatant (AlivaMab mouse); captured/detected via mouse Fc; also called mAb 42G9) VH: QVTLKESGPVLLKPTETLTLTCTVSGFSLSNPRMGVSWIRQPPGKALEWFAHIFSTDEKSLKLSLRSRLTLSKDTSKSQVVLTMTNMAPVDSATYYCARDSSNYEGYFDFWGQGTLVTVSS VL: EVVLTQSPATLSVSPGERATLSCRASQSVRSNLAWYQQKSGQAPRLLIYGSTIRATGVPARFSGSGSGTEFTLTISSLQSEDFAVYYCQQYSDWPFTFGPGTKVDIK >= 0.0007 s⁻¹?
Reply: Condition not met

Task item: Decide: koff of 26B9 (antibody, V domains shown, Hybridoma supernatant (AlivaMab mouse); captured/detected via mouse Fc) VH: EVQLVESWGVLVKPGGSLRLSCAASGFIFNNAWMSWVRQAPGKGLEWIGRIKSKSDGGTTDYAAPVKDRFTISRDDSKDTLYLQMNGLKTEDTAVYFCTTAPGGPFDYWGQGTLVTVSS VL: DIVLTQSPLSLPVTPGEPASISCRSSQSLLHRDGFNYLDWFLQKPGQSPQLLIYLASSRASGVPDRFSGSDSGTDFTLKISRVEAEDVGVYYCMQALQTPITFGQGTRLEIK >= 0.0007 s⁻¹?
Reply: Condition met

All figures here come from patent US20190144550A1.
